target: Integrin alpha-4/beta-1 (Homo sapiens, UniProt P05556+P13612); assay: Inhibition of alpha4-beta1 (very late) antigen binding with VCAM-1 immunoglobulin; assay type: protein-complex assay
Sequence (P05556 whole entry): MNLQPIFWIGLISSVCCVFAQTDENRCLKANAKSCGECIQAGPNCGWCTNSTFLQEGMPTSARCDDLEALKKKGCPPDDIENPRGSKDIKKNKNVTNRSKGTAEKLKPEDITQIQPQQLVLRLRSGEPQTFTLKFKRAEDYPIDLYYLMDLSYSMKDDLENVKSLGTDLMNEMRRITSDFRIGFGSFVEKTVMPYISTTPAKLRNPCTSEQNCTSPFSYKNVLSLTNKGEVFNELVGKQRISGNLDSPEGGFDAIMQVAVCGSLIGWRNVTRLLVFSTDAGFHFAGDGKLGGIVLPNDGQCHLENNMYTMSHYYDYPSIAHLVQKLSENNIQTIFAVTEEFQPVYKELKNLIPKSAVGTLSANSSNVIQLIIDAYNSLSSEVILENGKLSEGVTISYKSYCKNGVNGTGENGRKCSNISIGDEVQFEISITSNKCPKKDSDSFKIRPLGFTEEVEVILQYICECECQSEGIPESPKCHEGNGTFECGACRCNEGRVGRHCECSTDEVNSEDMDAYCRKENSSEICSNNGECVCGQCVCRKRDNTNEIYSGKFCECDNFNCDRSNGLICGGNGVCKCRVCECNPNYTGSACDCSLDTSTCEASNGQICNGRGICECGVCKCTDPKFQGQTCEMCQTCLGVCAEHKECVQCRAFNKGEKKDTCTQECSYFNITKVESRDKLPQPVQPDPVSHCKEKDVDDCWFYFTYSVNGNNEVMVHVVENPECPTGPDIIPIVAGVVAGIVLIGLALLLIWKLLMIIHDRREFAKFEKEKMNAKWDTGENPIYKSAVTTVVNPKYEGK
Sequence (P13612 whole entry): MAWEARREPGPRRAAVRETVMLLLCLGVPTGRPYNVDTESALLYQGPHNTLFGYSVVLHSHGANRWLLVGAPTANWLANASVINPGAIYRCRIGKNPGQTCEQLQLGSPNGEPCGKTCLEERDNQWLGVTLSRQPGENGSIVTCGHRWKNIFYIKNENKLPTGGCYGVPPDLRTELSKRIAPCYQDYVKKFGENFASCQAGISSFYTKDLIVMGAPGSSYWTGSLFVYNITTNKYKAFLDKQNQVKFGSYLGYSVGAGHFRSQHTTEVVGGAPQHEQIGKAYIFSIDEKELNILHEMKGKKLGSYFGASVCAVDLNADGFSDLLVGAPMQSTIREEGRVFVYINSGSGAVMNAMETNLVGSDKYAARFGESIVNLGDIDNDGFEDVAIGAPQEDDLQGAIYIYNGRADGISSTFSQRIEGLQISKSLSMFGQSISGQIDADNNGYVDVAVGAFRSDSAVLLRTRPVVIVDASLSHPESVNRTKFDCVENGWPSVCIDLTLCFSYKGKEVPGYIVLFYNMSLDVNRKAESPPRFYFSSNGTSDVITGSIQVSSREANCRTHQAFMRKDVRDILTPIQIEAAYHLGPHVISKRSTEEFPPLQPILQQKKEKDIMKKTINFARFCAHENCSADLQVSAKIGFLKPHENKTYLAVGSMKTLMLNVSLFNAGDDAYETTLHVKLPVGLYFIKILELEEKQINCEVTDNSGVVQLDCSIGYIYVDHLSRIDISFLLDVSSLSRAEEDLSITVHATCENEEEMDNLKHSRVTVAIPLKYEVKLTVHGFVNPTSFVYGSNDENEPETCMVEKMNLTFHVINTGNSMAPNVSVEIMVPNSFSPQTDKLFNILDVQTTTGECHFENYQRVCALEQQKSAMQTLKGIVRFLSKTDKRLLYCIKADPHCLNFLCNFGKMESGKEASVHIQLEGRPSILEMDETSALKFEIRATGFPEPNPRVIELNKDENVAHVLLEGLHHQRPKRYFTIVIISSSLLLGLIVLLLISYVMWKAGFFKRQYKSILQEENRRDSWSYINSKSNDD
pIC50: −log10 of the molar value.
Result Type: pIC50

>>> assay_value("COc1ccccc1-c1ccc(C[C@H](NC(=O)[C@@]2(c3cccc(C(F)(F)F)c3)CCCO2)C(=O)O)cc1")
8.33
>>> assay_value("COc1ccccc1-c1ccc(C[C@H](NC(=O)[C@@]2(c3cc(C(F)(F)F)cc(C(F)(F)F)c3)CCCO2)C(=O)O)cc1")
8.34
>>> assay_value("COc1ccccc1-c1ccc(C[C@H](NC(=O)[C@@]2(c3ccc(C(F)(F)F)cc3)CCCO2)C(=O)O)cc1")
8.27

---

molecular target: Integrin alpha-4/beta-1 (Homo sapiens, UniProt P05556+P13612); assay: Inhibition of alpha4-beta1 (very late) antigen binding with VCAM-1 immunoglobulin plus 5% human plasma; format: cell-free
Result Type: IC50 (µM)

Some solved cases for reference:
>>> assay_value("CCOC(=O)[C@]1(C(=O)N[C@@H](Cc2ccc(-c3ccccc3OC)cc2)C(=O)O)CCCO1")
0.019
>>> assay_value("COc1ccccc1-c1ccc(C[C@H](NC(=O)[C@@]2(c3ccc(C)c(C)c3)CCCO2)C(=O)O)cc1")
0.343
>>> assay_value("COc1cccc(OC)c1-c1ccc(C[C@H](NC(=O)[C@@]2(c3nc4ccccc4o3)CCCO2)C(=O)O)cc1")
0.0024
>>> assay_value("COc1cccc(OC)c1-c1ccc(C[C@H](NC(=O)[C@@]2(CCCCN(C)C)CCCO2)C(=O)O)cc1")
0.0229
>>> assay_value("COc1cccc(OC)c1-c1ccc(C[C@H](NC(=O)[C@@]2(CCCCO)CCCO2)C(=O)O)cc1")
0.87
>>> assay_value("COc1ccccc1-c1ccc(C[C@H](NC(=O)[C@@]2(c3ccc(C(F)(F)F)cc3)CCCO2)C(=O)O)cc1")
0.12
>>> assay_value("COc1ccccc1-c1ccc(C[C@H](NC(=O)[C@@]2(C(=O)N3CCOCC3)CCCO2)C(=O)O)cc1")
0.001
>>> assay_value("COc1ccccc1-c1ccc(C[C@H](NC(=O)[C@@]2(C)CCCO2)C(=O)O)cc1")
0.0606

a = COc1cccc(OC)c1-c1ccc(C[C@H](NC(=O)[C@@]2(C(C)C)CCCO2)C(=O)O)cc1
b = COc1ccccc1-c1ccc(C[C@H](NC(=O)[C@@]2(c3ccc(F)cc3)CCCO2)C(=O)O)cc1
Could you determine which record has the numerically smaller IC50? Candidates: a and b API: response body contains the label of the selected item.
a
(a: 0.00746 µM, b: 0.048 µM)

1 = COc1cccc(OC)c1-c1ccc(C[C@H](NC(=O)[C@@]2(C)CCCO2)C(=O)O)cc1
2 = COc1ccccc1-c1ccc(C[C@H](NC(=O)[C@@]2(c3ccc(Cl)cc3)CCCO2)C(=O)O)cc1
Could you determine which record has the numerically smaller IC50? Candidates: 1 and 2 API: response body contains the label of the selected item.
1
(1: 0.00361 µM, 2: 0.046 µM)

I = COc1cccc(OC)c1-c1ccc(C[C@H](NC(=O)[C@@]2(CCCO)CCCO2)C(=O)O)cc1
II = COc1ccccc1-c1ccc(C[C@H](NC(=O)[C@@]2(c3ccc(C(C)(C)C)cc3)CCCO2)C(=O)O)cc1
III = COc1ccccc1-c1ccc(C[C@H](NC(=O)[C@@]2(c3cc(C(F)(F)F)cc(C(F)(F)F)c3)CCCO2)C(=O)O)cc1
I would appreciate it if you could sort these 3 compounds by IC50, starting from the smallest number. Your task in answering is to list the labels in the requested order.
I, II, III
(I: 0.00336 µM, II: 0.029 µM, III: 1.1 µM)

A = COc1cc(OC)cc([C@]2(C(=O)N[C@@H](Cc3ccc(-c4c(OC)cccc4OC)cc3)C(=O)O)CCCO2)c1
B = COc1cccc(OC)c1-c1ccc(C[C@H](NC(=O)[C@@]2(CCN(C)C)CCCO2)C(=O)O)cc1
Between A and B , which one shows the larger IC50 value? API: response body contains the label of the selected item.
B

P = COCCCC[C@]1(C(=O)N[C@@H](Cc2ccc(-c3c(OC)cccc3OC)cc2)C(=O)O)CCCO1
Q = COc1ccccc1-c1ccc(C[C@H](NC(=O)[C@@]2(c3cccc(C(F)(F)F)c3)CCCO2)C(=O)O)cc1
Could you determine which record has the numerically smaller IC50? Candidates: P and Q API: response body contains the label of the selected item.
P

P = COc1cccc(OC)c1-c1ccc(C[C@H](NC(=O)[C@]2(C)OC(C)CC2=O)C(=O)O)cc1 (some centres undefined)
Q = COc1cccc(OC)c1-c1ccc(C[C@H](NC(=O)[C@@]2(CC(C)C)CCCO2)C(=O)O)cc1
R = COc1cccc(OC)c1-c1ccc(C[C@H](NC(=O)[C@@]2(CCO)CCCO2)C(=O)O)cc1
I would appreciate it if you could sort these 3 compounds by IC50, starting from the smallest number. Your task in answering is to list the labels in the requested order.
P, Q, R

I = CCCC[C@]1(C(=O)N[C@@H](Cc2ccc(-c3c(OC)cccc3OC)cc2)C(=O)O)CCCO1
II = COc1ccccc1-c1ccc(C[C@H](NC(=O)[C@@]2(C(=O)N3CCN(C)CC3)CCCO2)C(=O)O)cc1
Could you determine which record has the numerically smaller IC50? Candidates: I and II API: response body contains the label of the selected item.
II
